Each entry below lists one item and its recorded melting point value.

The compound CC1SC(=NC2CCCC2)N(C)C1CC(=O)Nc1ccccc1.Cl (stereo not shown) showed melting point equal to 186 to 188 °C

The compound CC(C)Oc1cc(N=C2SCC(CC(=O)Nc3ccc(C(C)C)cc3)N2C)c(F)cc1Cl.Cl (stereo not shown) [KHG21944] showed melting point equal to 190 to 194 °C

The compound COc1ccc(NC(=O)CC2C(C)SC(=NC3CCCCC3)N2C)cc1 (stereo not shown) [KHG24481] showed melting point equal to 258 to 260 °C

The compound CN1C(=NC2CCCC2)SCC1CC(=O)Nc1ccc(Br)cc1.Cl (stereo not shown) [KHG24098] showed melting point equal to 228 to 228.5 °C

The compound CC1SC(=NC2CCCCC2)N(C)C1CC(=O)Nc1cccc(F)c1.Cl (stereo not shown) [KHG24636] showed melting point equal to 257 to 259 °C

The compound CCc1ccc(NC(=O)CC2C(C)SC(=NC3CCCCC3)N2C)cc1.Cl (stereo not shown) [KHG24523] showed melting point equal to 265 to 266 °C

The compound CN1C(=NC2CCCC2)SCC1CC(=O)Nc1ccc(F)cc1Cl.Cl (stereo not shown) [KHG24095] showed melting point equal to 209 to 210.5 °C

###

quantity: melting point

molecule: CN1C(=NC2CCCCCC2)SCC1C(=O)NCc1ccc(Cl)c(Cl)c1.Cl (stereo not shown) [KHG24338]
quantity: melting point
data_value: 218 to 219 °C
--
molecule: CN1C(=NC2CCCCC2)SCC1CC(=O)Nc1ccc(C(C)(C)C)cc1.Cl (stereo not shown) [KHG24073]
quantity: melting point
data_value: 234 to 235.5 °C
--
molecule: CN1C(=NC2CC2)SCC1CC(=O)Nc1ccccc1.Cl (stereo not shown)
quantity: melting point
data_value: 240.5 to 241 °C
--
molecule: CCCCc1ccc(NC(=O)CC2C(C)SC(=NC3CCCCCC3)N2C)cc1.Cl (stereo not shown) [KHG24516]
quantity: melting point
data_value: 247 to 249 °C

The molecule COc1ccc(CNC(=O)CC2CSC(=NC3CC3)N2C)cc1.Cl (stereo not shown) showed melting point equal to 220.5 to 222 °C

The molecule CCCCc1ccc(N=C2SCC(CC(=O)Nc3ccc(Cl)cc3F)N2C)cc1.Cl (stereo not shown) [KHG23066] showed melting point equal to 223 to 224 °C

The molecule CCc1ccc(NC(=O)CC2CSC(=NC3CCCCC3)N2C2CC2)cc1.Cl (stereo not shown) [KHG24272] showed melting point equal to 194.2 °C

###

quantity: melting point

Worked cases, melting point given:
compound: CN1C(=NC2CCCC2)SCC1CC(=O)Nc1ccc(F)cc1F.Cl (centres unmarked)
melting point: 240 to 242.5 °C
//
compound: Cl.O=C(CC1CSC(=NC2CCCCC2)N1Cc1ccccc1)Nc1cc(Cl)cc(Cl)c1 (centres unmarked)
melting point: 178 to 179 °C
//
compound: CCCCN1C(=NC2CCCCC2)SCC1CC(=O)Nc1ccc(C)cc1Cl.Cl (centres unmarked)
melting point: 143 to 144 °C

The compound CCCCc1ccc(NC(=O)CC2CSC(=NC3CCCC3)N2C)cc1.Cl (centres unmarked) showed melting point equal to 216 to 217.5 °C

The compound CC(C)c1ccc(NC(=O)CC2CSC(=Nc3ccc(F)c(Cl)c3)N2C)cc1.Cl (centres unmarked) showed melting point equal to 239 to 241 °C
